Test: Terminal half life in Sprague-Dawley rat at 5 mg/kg, iv measured up to 24 hrs by LC-MS analysis
Type: ADME, organism-based
Conditions: in vivo, read-out: beta t1/2 (converted)
experimental readout: half-life (h)

>>> print(df.to_string())
                      smiles_representation  value
0  O=C(Nc1ccc2[nH]ncc2c1)[C@]12ON=C(c3cccnc3)[C@H]1[C@@H]1CC[C@H]2C1    4.5

----------
Assay: Tmax in Sprague-Dawley rat at 25 mg/kg, po measured up to 24 hrs by LC-MS analysis
Assay type: ADME, organism-based
Conditions: in vivo
experimental readout: Tmax

In [3]: df
Out[3]:
                      smiles_representation  experimental_readout  value
0  O=C(Nc1ccc2[nH]ncc2c1)[C@]12ON=C(c3cccnc3)[C@H]1[C@@H]1CC[C@H]2C1                  Tmax  4.2 h

Entry source: ChEMBL document CHEMBL5126611
